# Test target: SpRvs167
# Method notes: SPOT peptide array binding signal intensity (averaged, normalized) (arbitrary units (background-subtracted, floor 0; scale differs between SH3 domains)); higher = stronger binding of the SH3 domain to the peptide
Output Condition met for SPOT peptide array binding signal intensity not less than 60; output Condition not met otherwise.

Binder	Assigned class
NNNKMRPHLPPLSSG	Condition met
LRIKRKPVQTFFEFI	Condition not met
WRPRIVPILPYITRL	Condition met
PSRRDSLSIPRAVDA	Condition not met
MFLISPPASPPPEFD	Condition not met
GLRRARYKFPGQQKI	Condition not met

meta.source: the supplement of paper PMC4466140
